Attribution: patent US11224609B2

- System: VCaP prostate cancer cells (TMPRSS2-ERG)
This section presents molecules with their documented GI50 values.
Reply with just the number (in nM).

Below are worked cases with known answers.
MOLECULE	UNIT_SYMBOL	GI50
COC(=O)C(Cc1ccccc1)NC(=O)C(Cc1ccccc1)NC(=O)C(OC)C1Cc2cc3cc(OC4CC(OC5CC(O)C(O)C(C)O5)C(O)C(C)O4)c(C)c(O)c3c(O)c2C(=O)C1OC1CC(OC2CC(OC3CC(C)(O)C(O)C(C)O3)C(O)C(C)O2)C(O)C(C)O1 (stereo not drawn)	nM	442
COC(=O)C(Cc1cn(C)c2ccccc12)NC(=O)C(OC)C1Cc2cc3cc(OC4CC(OC5CC(O)C(O)C(C)O5)C(O)C(C)O4)c(C)c(O)c3c(O)c2C(=O)C1OC1CC(OC2CC(OC3CC(C)(O)C(O)C(C)O3)C(O)C(C)O2)C(O)C(C)O1 (stereo not drawn)	nM	307
COC(=O)C(Cc1c[nH]c2ccccc12)NC(=O)C(Cc1ccccc1)NC(=O)C(OC)C1Cc2cc3cc(OC4CC(OC5CC(O)C(O)C(C)O5)C(O)C(C)O4)c(C)c(O)c3c(O)c2C(=O)C1OC1CC(OC2CC(OC3CC(C)(O)C(O)C(C)O3)C(O)C(C)O2)C(O)C(C)O1 (stereo not drawn)	nM	39
COC(=O)C(Cc1c[nH]c2cc(F)ccc12)NC(=O)C(OC)C1Cc2cc3cc(OC4CC(OC5CC(O)C(O)C(C)O5)C(O)C(C)O4)c(C)c(O)c3c(O)c2C(=O)C1OC1CC(OC2CC(OC3CC(C)(O)C(O)C(C)O3)C(O)C(C)O2)C(O)C(C)O1 (stereo not drawn)	nM	319
COC(=O)C(Cc1c[nH]c2ccccc12)NC(=O)C(OC)C1Cc2cc3cc(OC4CC(OC5CC(O)C(O)C(C)O5)C(O)C(C)O4)c(C)c(O)c3c(O)c2C(=O)C1OC1CC(OC2CC(OC3CC(C)(O)C(O)C(C)O3)C(O)C(C)O2)C(O)C(C)O1 (stereo not drawn) [MTMSA-Trp (3), Mithramycin SA-Tryptophan, reference compound]	nM	60

Kindly review the next molecule as well.
# return recorded GI50 for input COC(=O)C(Cc1c[nH]c2ccccc12)NC(=O)C(Cc1c[nH]c2ccccc12)NC(=O)C(OC)C1Cc2cc3cc(OC4CC(OC5CC(O)C(O)C(C)O5)C(O)C(C)O4)c(C)c(O)c3c(O)c2C(=O)C1OC1CC(OC2CC(OC3CC(C)(O)C(O)C(C)O3)C(O)C(C)O2)C(O)C(C)O1 (stereo not drawn)
31
